Test system: ragweed (common ragweed, Ambrosia elatior)
TEST NAME: Test A preemergence, visual injury rating 0-100
Assay type: in vivo
ASSAY CONTEXT: 31 g ai/ha, 0 to 100 scale (0 no effect, 100 complete control), approx. 10 days
METRIC: Ragweed plant response rating
Quick one: just the number, no unit, thanks!

Inquiry: Identify measured Ragweed plant response rating associated with CC1=[N+]([O-])[C@H](C(=O)Nc2cccc(F)c2F)[C@@H](c2ccc(F)c(OC(F)(F)C(F)F)c2)C1
Reply text: 0

Inquiry: Identify measured Ragweed plant response rating associated with CC1=[N+]([O-])[C@@H](C(=O)Nc2cccc(F)c2F)[C@H](c2ccc(F)c(F)c2)C1
Reply text: 0

Inquiry: Identify measured Ragweed plant response rating associated with CC1=[N+]([O-])[C@@H](C(=O)Nc2cccc(F)c2F)[C@H](c2cccc(OC(C)C)c2)C1
Reply text: 0

Inquiry: Identify measured Ragweed plant response rating associated with CC1=[N+]([O-])C(C(=O)Nc2cccc(F)c2F)C(c2ccc(F)c(Oc3ccc(Cl)nc3)c2)C1 (racemic)
Reply text: 0

Inquiry: Identify measured Ragweed plant response rating associated with CC1=[N+]([O-])[C@H](C(=O)Nc2cccc(F)c2F)[C@@H](c2ccc(Cl)cc2)C1
Reply text: 20

Taken from patent US11498899B2.
